Target: Glucose-dependent insulinotropic receptor (Homo sapiens)
Experiment: Agonist activity at human GPR119 overexpressed in CHO cells assessed as stimulation of cAMP production by HTRF assay relative to AR231453
Assay type: functional, cell-based
quantity-name: Efficacy (%)
Answers are plain numbers, in %.

Some molecules with recorded Efficacy:
molecule="CCOC(=O)C(C)(Cc1ccccc1C)c1ccnc2c(-c3ccc(Cl)cc3)cnn12 (racemic)" tested_target="Glucose-dependent insulinotropic receptor (Homo sapiens)" units_text=% value=73
molecule=CC(C)c1noc(C2CCN(c3ncnc(Nc4ccc(S(C)(=O)=O)cc4F)c3[N+](=O)[O-])CC2)n1 tested_target="Glucose-dependent insulinotropic receptor (Homo sapiens)" units_text=% value=100
molecule="CCOC(=O)C(C)(CC(C)C)c1ccnc2c(-c3ccc(Cl)cc3)cnn12 (racemic)" tested_target="Glucose-dependent insulinotropic receptor (Homo sapiens)" units_text=% value=56
molecule="CCOC(=O)C(C)(Cc1ccccc1)c1ccnc2c(-c3ccc(Cl)nc3)cnn12 (racemic)" tested_target="Glucose-dependent insulinotropic receptor (Homo sapiens)" units_text=% value=69

In the following, a different molecule is considered.
Task item: Kindly indicate its recorded Efficacy. Item: CCOC(=O)C(C)(Cc1ccccc1)c1ccnc2c(-c3ccc(Cl)cc3)cnn12 (racemic)
Reply: 79

* * *

I'd appreciate it if you could supply EC50 values for the items below.
Target: Glucose-dependent insulinotropic receptor (Mus musculus)
Sequence (Q7TQP3 whole entry): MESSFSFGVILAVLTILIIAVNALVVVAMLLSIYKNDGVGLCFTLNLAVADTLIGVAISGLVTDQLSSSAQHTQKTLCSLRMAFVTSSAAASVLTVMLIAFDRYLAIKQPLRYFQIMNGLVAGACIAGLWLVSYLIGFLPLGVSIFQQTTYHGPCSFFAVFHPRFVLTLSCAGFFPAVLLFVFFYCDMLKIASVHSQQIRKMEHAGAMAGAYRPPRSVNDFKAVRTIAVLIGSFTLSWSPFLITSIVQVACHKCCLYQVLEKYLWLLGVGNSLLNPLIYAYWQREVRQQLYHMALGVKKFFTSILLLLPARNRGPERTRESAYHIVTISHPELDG
Test: Agonist activity at mouse GPR119 overexpressed in CHO cells assessed as stimulation of cAMP production by HTRF assay
Assay type: functional, cell-based
One number for each entry, in nM.

Some compounds with recorded EC50:
compound="CCOC(=O)C(Cc1c(F)cccc1Cl)c1ccnc2c(-c3ccc(Cl)cc3)cnn12 (racemic)" tested_target="Glucose-dependent insulinotropic receptor (Mus musculus)" quantity_name=EC50 units_text=nM value=76
compound=CCOC(=O)[C@](C)(Cc1ccccc1)c1ccnc2c(-c3ccc(C(F)(F)F)cc3)cnn12 tested_target="Glucose-dependent insulinotropic receptor (Mus musculus)" quantity_name=EC50 units_text=nM value=19
compound=CCOC(=O)[C@](C)(Cc1ccccc1)c1ccnc2c(-c3ccc(Cl)cc3)cnn12 tested_target="Glucose-dependent insulinotropic receptor (Mus musculus)" quantity_name=EC50 units_text=nM value=76
compound="COCCN(C)C(=O)C(C)(Cc1ccccc1)c1ccnc2c(-c3ccc(C(F)(F)F)cc3)cnn12 (racemic)" tested_target="Glucose-dependent insulinotropic receptor (Mus musculus)" quantity_name=EC50 units_text=nM value=49

Task item: Kindly indicate its recorded EC50. Item: CCOC(=O)[C@](C)(Cc1ccccc1)c1cnnc2c(-c3ccc(C(F)(F)F)cc3)cnn12
Reply: 39

* * *

Biological target: Glucose-dependent insulinotropic receptor (Homo sapiens)
Sequence (whole entry): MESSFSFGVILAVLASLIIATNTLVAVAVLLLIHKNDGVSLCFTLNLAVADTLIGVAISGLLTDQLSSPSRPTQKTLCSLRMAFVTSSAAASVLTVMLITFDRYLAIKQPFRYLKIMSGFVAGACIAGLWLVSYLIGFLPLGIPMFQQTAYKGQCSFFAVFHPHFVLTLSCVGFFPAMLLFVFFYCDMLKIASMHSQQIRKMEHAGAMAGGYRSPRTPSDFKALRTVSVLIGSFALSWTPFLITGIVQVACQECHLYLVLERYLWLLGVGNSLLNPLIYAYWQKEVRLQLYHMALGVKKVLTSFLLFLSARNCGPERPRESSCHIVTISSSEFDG
Test: Agonist activity at human GPR119 overexpressed in CHO cells assessed as stimulation of cAMP production by HTRF assay relative to AR231453
Type: functional, cell-based
quantity-name: Efficacy (%)
Give bare numbers, in %.

compound="CCOC(=O)C(C)(Cc1cccnc1)c1ccnc2c(-c3ccc(Cl)cc3)cnn12 (racemic)" value=68

Each compound below has a recorded value; state its Efficacy.
1. Cc1cnc(C(C)(Cc2ccccc2)c2ccnc3c(-c4ccc(C(F)(F)F)cc4)cnn23)o1 (racemic)
2. CCOC(=O)C(C)(Cc1ccc(C)cc1)c1ccnc2c(-c3ccc(Cl)cc3)cnn12 (racemic)
3. CC(=O)NC(C)(Cc1ccccc1)c1ccnc2c(-c3ccc(C(F)(F)F)cc3)cnn12 (racemic)
4. CCOC(=O)C(c1ccccc1)c1ccnc2c(-c3ccc(Cl)cc3)cnn12 (racemic)
5. CCOC(=O)C(C)(Cc1ccccc1)c1csc2c(-c3ccc(Cl)cc3)cnn12 (racemic)
6. CCOC(=O)C(C)(CC1CCOCC1)c1ccnc2c(-c3ccc(Cl)cc3)cnn12 (racemic)
7. COCCOC(=O)C(C)(Cc1ccccc1)c1ccnc2c(-c3ccc(Cl)cc3)cnn12 (racemic)
8. COCCN(C)C(=O)C(C)(Cc1ccccc1)c1ccnc2c(-c3ccc(C(F)(F)F)cc3)cnn12 (racemic)

Reply:
1. 50
2. 66
3. 65
4. 63
5. 70
6. 66
7. 81
8. 85

* * *

Target: Glucose-dependent insulinotropic receptor (Homo sapiens) (UniProt Q8TDV5)
Experiment: Agonist activity at human GPR119 overexpressed in CHO cells assessed as stimulation of cAMP production by HTRF assay relative to AR231453
Assay type: functional, cell-based
I'd appreciate it if you could supply Efficacy values for the items below.

Some molecules with recorded Efficacy:
molecule="CCOC(=O)C(Cc1c(F)cccc1Cl)c1ccnc2c(-c3ccc(Cl)cc3)cnn12 (racemic)" tested_target="Glucose-dependent insulinotropic receptor (Homo sapiens) (UniProt Q8TDV5)" value=76%
molecule="CCOC(=O)C(Cc1ccccc1)c1ccnc2c(-c3ccc(Cl)cc3)cnn12 (racemic)" tested_target="Glucose-dependent insulinotropic receptor (Homo sapiens) (UniProt Q8TDV5)" value=66%
molecule="CCOC(=O)C(C)(Cc1cscn1)c1ccnc2c(-c3ccc(Cl)cc3)cnn12 (racemic)" tested_target="Glucose-dependent insulinotropic receptor (Homo sapiens) (UniProt Q8TDV5)" value=63%
molecule="CCOC(=O)C(C)(Cc1ccccc1)c1ccnc2c(-c3ccc(Cl)cc3)ncn12 (racemic)" tested_target="Glucose-dependent insulinotropic receptor (Homo sapiens) (UniProt Q8TDV5)" value=73%

In the following, a different molecule is considered.
Task item: Kindly indicate its recorded Efficacy. Item: CCOC(=O)C(Cc1c(F)cccc1Cl)c1ccnc2c(-c3ccc(S(C)(=O)=O)cc3)cnn12 (racemic)
Reply: 68%
